test-system: AM2 (S31N) (Influenza A virus, UniProt P0DOF5, S31N)
Type: cell-based
Where a name gives a salt, the structure may show the parent alone.

compound: O=CC12CC3CC(CC(C3)C1)C2
test-system: AM2 (S31N) (Influenza A virus, UniProt P0DOF5, S31N)
AM2 (S31N) % inhibition at 100 uM: 49 (11%)
--
compound: N=C(N)C12CC3CC(CC(C3)C1)C2 [Compound 44, Adamantane amidine hydrochloride]
test-system: AM2 (S31N) (Influenza A virus, UniProt P0DOF5, S31N)
AM2 (S31N) % inhibition at 100 uM: 44 (31.5%)
--
compound: NC(=O)C12CC3CC(CC(C3)C1)C2
test-system: AM2 (S31N) (Influenza A virus, UniProt P0DOF5, S31N)
AM2 (S31N) % inhibition at 100 uM: 48 (7.3%)
--
compound: C1NC2CC3CC1CC(C3)C2.Cl
test-system: AM2 (S31N) (Influenza A virus, UniProt P0DOF5, S31N)
AM2 (S31N) % inhibition at 100 uM: 47 (8%)
--
compound: N=C(N)NC12CC3CC(CC(C3)C1)C2
test-system: AM2 (S31N) (Influenza A virus, UniProt P0DOF5, S31N)
AM2 (S31N) % inhibition at 100 uM: 39 (0%)
--
compound: Cc1nc[nH]c1/C=N/OC12CC3CC(CC(C3)C1)C2
test-system: AM2 (S31N) (Influenza A virus, UniProt P0DOF5, S31N)
AM2 (S31N) % inhibition at 100 uM: 43 (10%)
--
compound: NC12CC3CC(C1)CC(O)(C3)C2
test-system: AM2 (S31N) (Influenza A virus, UniProt P0DOF5, S31N)
AM2 (S31N) % inhibition at 100 uM: 38 (20%)
--
compound: Cl.Cl.N=C(N)NC(=N)NC12CC3CC(CC(C3)C1)C2
test-system: AM2 (S31N) (Influenza A virus, UniProt P0DOF5, S31N)
AM2 (S31N) % inhibition at 100 uM: 41 (0%)
--
compound: OC1(C(F)(F)F)C2CC3CC(C2)CC1C3 (stereo not shown)
test-system: AM2 (S31N) (Influenza A virus, UniProt P0DOF5, S31N)
AM2 (S31N) % inhibition at 100 uM: 53 (14%)
--
compound: O=C1C2CC3CC(C2)CC1C3
test-system: AM2 (S31N) (Influenza A virus, UniProt P0DOF5, S31N)
AM2 (S31N) % inhibition at 100 uM: 50 (0%)
--
compound: O=C1C2CC3CC1CC(C2)C3=O
test-system: AM2 (S31N) (Influenza A virus, UniProt P0DOF5, S31N)
AM2 (S31N) % inhibition at 100 uM: 52 (0%)
--
compound: CC(NC(=N)N)C12CC3CC(CC(C3)C1)C2 (stereo not shown)
test-system: AM2 (S31N) (Influenza A virus, UniProt P0DOF5, S31N)
AM2 (S31N) % inhibition at 100 uM: 40 (0%)
--
compound: N=C(NO)C12CC3CC(CC(C3)C1)C2 [Compound 46, N-hydroxyadamantanecarboximidamide]
test-system: AM2 (S31N) (Influenza A virus, UniProt P0DOF5, S31N)
AM2 (S31N) % inhibition at 100 uM: 46 (0%)
--
compound: NOC12CC3CC(CC(C3)C1)C2 [Compound 42, O-adamantylhydroxylamine]
test-system: AM2 (S31N) (Influenza A virus, UniProt P0DOF5, S31N)
AM2 (S31N) % inhibition at 100 uM: 42 (15%)
--
compound: O=[N+]([O-])C12CC3CC(CC(C3)C1)C2
test-system: AM2 (S31N) (Influenza A virus, UniProt P0DOF5, S31N)
AM2 (S31N) % inhibition at 100 uM: 54 (24%)
--
compound: NC1CSC2(SC1)C1CC3CC(C1)CC2C3 (stereo not shown)
test-system: AM2 (S31N) (Influenza A virus, UniProt P0DOF5, S31N)
AM2 (S31N) % inhibition at 100 uM: 45 (0%)

====

test-system: AM2 (S31N) (Influenza A virus, UniProt P0DOF5, S31N)
Format: cell-based

molecule: O=C1C2CC3CC(C2)CC1C3
scale-unit: %
AM2 (S31N) % inhibition at μM: 0
--
molecule: NC1(C(F)(F)F)C2CC3CC(C2)CC1C3 (centres unmarked)
scale-unit: %
AM2 (S31N) % inhibition at μM: 13.7
--
molecule: NS(=O)(=O)NC1C2CC3CC(C2)CC1C3 (centres unmarked)
scale-unit: %
AM2 (S31N) % inhibition at μM: 3.8
--
molecule: CC1(O)C2CC3CC(C2)CC1C3 (centres unmarked)
scale-unit: %
AM2 (S31N) % inhibition at μM: 10.6
--
molecule: CC1(N)C2CC3CC(C2)CC1C3 (centres unmarked)
scale-unit: %
AM2 (S31N) % inhibition at μM: 13.8
--
molecule: O=[N+]([O-])C12CC3CC(CC(C3)C1)C2
scale-unit: %
AM2 (S31N) % inhibition at μM: 24.0
--
molecule: Cl.NC1C2CC3CC(C2)CC1C3 (centres unmarked)
scale-unit: %
AM2 (S31N) % inhibition at μM: 18.2
--
molecule: O=[N+]([O-])C1C2CC3CC(C2)CC1C3 (centres unmarked)
scale-unit: %
AM2 (S31N) % inhibition at μM: 12.4
--
molecule: Cl.NC12CC3CCC(CC(C3)C1)C2
scale-unit: %
AM2 (S31N) % inhibition at μM: 23.7
--
molecule: OC1(C(F)(F)F)C2CC3CC(C2)CC1C3 (centres unmarked)
scale-unit: %
AM2 (S31N) % inhibition at μM: 14.0
--
molecule: Cl.NC12CCC3CC(CC(C3)C1)C2
scale-unit: %
AM2 (S31N) % inhibition at μM: 32.8

====

test-system: AM2 (V27A) (Influenza A virus, UniProt P0DOF5, V27A)
Assay type: cell-based
Note to self: values exactly at 10% are Y. So AM2 (V27A) % inhibition at μM at or above 10% is Y, below is N.

molecule: OC1(C(F)(F)F)C2CC3CC(C2)CC1C3 (centres unmarked)
class-assignment: Y
--
molecule: O=[N+]([O-])C12CC3CC(CC(C3)C1)C2
class-assignment: Y
--
molecule: Cl.NC12CCC3CC(CC(C3)C1)C2
class-assignment: Y
--
molecule: Cl.NC1C[C@@H]2C[C@@H]3CC1[C@H](C2)C3 (some centres unmarked)
class-assignment: Y
--
molecule: NC1(C(F)(F)F)C2CC3CC(C2)CC1C3 (centres unmarked)
class-assignment: N
--
molecule: CC1(O)C2CC3CC(C2)CC1C3 (centres unmarked)
class-assignment: Y
--
molecule: O=[N+]([O-])C1C2CC3CC(C2)CC1C3 (centres unmarked)
class-assignment: N
--
molecule: CC1(N)C2CC3CC(C2)CC1C3 (centres unmarked)
class-assignment: N
--
molecule: Cl.NC1C2CC3CC(C2)CC1C3 (centres unmarked)
class-assignment: N
--
molecule: O=C1C2CC3CC(C2)CC1C3
class-assignment: N
--
molecule: Cl.NC12CC3CCC(CC(C3)C1)C2
class-assignment: Y
